IC50: recorded values
EXPERIMENTAL SYSTEM: PSMA-expressing C4-2 cells (Homo sapiens)
Construct: PSMA-expressing C4-2 cells (ATCC, Cat. No. CRL-3314) were cultured in RPMI-1640; host or cells: C4-2 cells
TEST PROTOCOL: FACS binding assay (competition with 50 nM PSM-0183)
CONDITION SUMMARY: FACS binding, PSMA-expressing C4-2 cells; pIC50 category; read-out: pIC50 [C4-2] CAT (converted)
Numbered stars: 1 amine (or outer) side, 2 acyl side, 3 side chain; on linkers, the order of the positions; unused ones are H or OH. Bridge positions count the residues as written; N and C are the ends. Square brackets hold non-standard residues; d marks the D form. Peptide text beside a SMILES is read from it. * marks the point of attachment. DOTA = O=C(O)CN1CCN(CC(=O)O)CCN(CC(=O)*)CCN(CC(=O)O)CC1; Trp(5-Cl) = N[C@@H](Cc1c[nH]c2ccc(Cl)cc12)C(=O)O; Phe(4-CN) = N#Cc1ccc(C[C@H](N)C(=O)O)cc1; Phe(4-Cl) = N[C@@H](Cc1ccc(Cl)cc1)C(=O)O; Arg(Me) = CNC(=N)NCCC[C@H](N)C(=O)O; Ethylenediamine = C(CN[*:2])N[*:1]; X1 = O=C(CC1CCN([*:1])CC1)[*:2]; Lys(Me) = CNCCCC[C@H](N)C(=O)O; Tle = CC(C)(C)[C@H](N)C(=O)O; Aib = CC(C)(N)C(=O)O; Ahx = NCCCCCC(=O)O

>  <COMPOUND>
CNCCCC[C@@H]1NC(=O)[C@@H](NC(=O)[C@H](Cc2c[nH]c3ccc(Cl)cc23)NC(=O)C(C)(C)NC(=O)[C@@H](NC(=O)CC2CCN(C(=O)CN3CCN(CC(=O)O)CCN(CC(=O)O)CCN(CC(=O)O)CC3)CC2)[C@@H](C)O)CSSC[C@@H](C(=O)N[C@H](C(=O)N[C@H](C(N)=O)[C@@H](C)O)C(C)(C)C)NC(=O)[C@H](CC(N)=O)NC(=O)C(C)(C)NC(=O)[C@H](CCCNC(=N)NC)NC1=O [PSM-0308] ({DOTA}-[X1]T[Aib][Trp(5-Cl)]C[Lys(Me)][Arg(Me)][Aib]NC[Tle]T-NH2; disulfide 5-10)

>  <IC50>
200 to 1260 nM

$$$$
>  <COMPOUND>
CC(=O)N[C@H](C(=O)NC(C)(C)C(=O)N[C@@H](Cc1ccccc1)C(=O)N[C@H]1CSSC[C@@H](C(=O)N[C@H](C(=O)N[C@H](C(=O)N[C@@H](CC(=O)O)C(N)=O)[C@@H](C)O)C(C)(C)C)NC(=O)[C@H](CC(N)=O)NC(=O)[C@H](C)NC(=O)[C@H](CCC(=O)O)NC(=O)[C@H](CCCCN)NC1=O)[C@@H](C)O [PSM-0363] (Ac-T[Aib]FCKEANC[Tle]TD-NH2; disulfide 4-9)

>  <IC50>
200 to 1260 nM

$$$$
>  <COMPOUND>
CC(=O)N[C@@H](Cc1ccc(Cl)cc1)C(=O)N[C@H]1CSSC[C@@H](C(=O)N[C@H](C(N)=O)C(C)(C)C)NC(=O)[C@H](CC(N)=O)NC(=O)C(C)(C)NC(=O)[C@H](CCCNC(=N)N)NC(=O)[C@H](CCCCN)NC1=O [PSM-0281, Ac-Pcf-[Cys-Lys-Arg-Aib-Asn-Cys]-Tle-NH2] (Ac-[Phe(4-Cl)]CKR[Aib]NC[Tle]-NH2; disulfide 2-7)

>  <IC50>
> 3160 nM

$$$$
>  <COMPOUND>
CC(=O)N[C@H](C(=O)NC(C)(C)C(=O)N[C@@H](Cc1ccc(C#N)cc1)C(=O)N[C@H]1CSSC[C@@H](C(=O)N[C@H](C(=O)N[C@H](C(N)=O)[C@@H](C)O)C(C)(C)C)NC(=O)[C@H](CC(N)=O)NC(=O)C(C)(C)NC(=O)[C@H](CCCNC(=N)N)NC(=O)[C@H](CCCCN)NC1=O)[C@@H](C)O [PSM-0278] (Ac-T[Aib][Phe(4-CN)]CKR[Aib]NC[Tle]T-NH2; disulfide 4-9)

>  <IC50>
< 200 nM

$$$$
>  <COMPOUND>
CC(=O)N[C@H](C(=O)NC(C)(C)C(=O)N[C@@H](Cc1ccc(Cl)cc1)C(=O)N[C@H]1CSSC[C@@H](C(=O)N[C@H](C(=O)N[C@H](C(N)=O)[C@@H](C)O)C(C)(C)C)NC(=O)[C@H](CC(N)=O)NC(=O)C(C)(C)NC(=O)[C@H](CCCNC(=N)N)NC(=O)[C@H](CCCCN)NC1=O)[C@@H](C)O [PSM-0336] (Ac-T[Aib][Phe(4-Cl)]CKR[Aib]NC[Tle]T-NH2; disulfide 4-9)

>  <IC50>
< 200 nM

$$$$
>  <COMPOUND>
C[C@@H](O)[C@H](NC(=O)[C@@H](NC(=O)[C@@H]1CSSC[C@H](NC(=O)[C@H](Cc2ccc(Cl)cc2)NC(=O)C(C)(C)NC(=O)CCCCCNC(=O)CN2CCN(CC(=O)O)CCN(CC(=O)O)CCN(CC(=O)O)CC2)C(=O)N[C@@H](CCCCN)C(=O)N[C@@H](CCCNC(=N)N)C(=O)NC(C)(C)C(=O)N[C@@H](CC(N)=O)C(=O)N1)C(C)(C)C)C(N)=O [PSM-0310] ({DOTA-Ahx}-[Aib][Phe(4-Cl)]CKR[Aib]NC[Tle]T-NH2; disulfide 3-8)

>  <IC50>
< 200 nM

$$$$
>  <COMPOUND>
CNC(=N)NCCC[C@@H]1NC(=O)[C@H](CCCCN)NC(=O)[C@@H](NC(=O)[C@H](Cc2ccc(Cl)cc2)NC(=O)C(C)(C)NC(C)=O)CSSC[C@@H](C(=O)N[C@H](C(=O)NCCNC(=O)CN2CCN(CC(=O)O)CCN(CC(=O)O)CCN(CC(=O)O)CC2)C(C)(C)C)NC(=O)[C@H](CC(N)=O)NC(=O)C(C)(C)NC1=O [PSM-0320] (Ac-[Aib][Phe(4-Cl)]CK[Arg(Me)][Aib]NC[Tle]-{Ethylenediamine-DOTA}; disulfide 3-8)

>  <IC50>
< 200 nM

$$$$

Attention now shifts to the item below.
Item CC(=O)NC(=N)NCCC[C@@H]1NC(=O)[C@H](CCCCN)NC(=O)[C@@H](NC(=O)[C@H](Cc2ccc(Cl)cc2)NC(=O)C(C)(C)NC(C)=O)CSSC[C@@H](C(=O)N[C@H](C(=O)N[C@H](C(=O)N2CCC(CC(=O)N[C@H](CCCCNC(=O)CN3CCN(CC(=O)O)CCN(CC(=O)O)CCN(CC(=O)O)CC3)C(N)=O)CC2)[C@@H](C)O)C(C)(C)C)NC(=O)[C@H](CC(N)=O)NC(=O)C(C)(C)NC1=O [PSM-0298] (Ac-[Aib][Phe(4-Cl)]CKR(Ac)[Aib]NC[Tle]T[X1][dK](DOTA)-NH2; disulfide 3-8) ; assay system PSMA-expressing C4-2 cells (Homo sapiens); IC50 reported as 200 to 1260 nM

###

EXPERIMENTAL SYSTEM: PSMA-expressing C4-2 cells (Homo sapiens, UniProt Q04609)
Construct: PSMA-expressing C4-2 cells (ATCC, Cat. No. CRL-3314) were cultured in RPMI-1640; host or cells: C4-2 cells
Sequence (Q04609 whole entry): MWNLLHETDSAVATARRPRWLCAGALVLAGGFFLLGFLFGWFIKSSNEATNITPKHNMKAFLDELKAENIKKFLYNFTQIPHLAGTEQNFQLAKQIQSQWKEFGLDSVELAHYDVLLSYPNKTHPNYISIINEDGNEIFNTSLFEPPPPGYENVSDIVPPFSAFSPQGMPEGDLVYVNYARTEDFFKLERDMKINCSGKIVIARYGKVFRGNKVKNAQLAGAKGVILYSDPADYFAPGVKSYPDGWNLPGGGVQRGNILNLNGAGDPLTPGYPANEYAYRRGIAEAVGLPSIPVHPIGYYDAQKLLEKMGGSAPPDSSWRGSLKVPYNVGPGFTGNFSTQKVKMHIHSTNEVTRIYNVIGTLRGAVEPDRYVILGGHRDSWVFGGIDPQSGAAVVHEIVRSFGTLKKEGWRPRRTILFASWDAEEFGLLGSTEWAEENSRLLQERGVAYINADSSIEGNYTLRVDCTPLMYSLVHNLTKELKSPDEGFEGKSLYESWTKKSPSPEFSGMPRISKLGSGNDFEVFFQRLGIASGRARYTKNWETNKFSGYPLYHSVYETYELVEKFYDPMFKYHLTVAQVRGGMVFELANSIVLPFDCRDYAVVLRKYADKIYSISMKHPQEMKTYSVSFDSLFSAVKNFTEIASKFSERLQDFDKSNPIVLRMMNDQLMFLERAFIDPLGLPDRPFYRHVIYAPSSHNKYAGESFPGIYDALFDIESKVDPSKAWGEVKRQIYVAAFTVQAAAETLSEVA
TEST PROTOCOL: FACS binding assay (competition with 50 nM PSM-0183)
CONDITION SUMMARY: FACS binding, C4-2 cells, competition with 50 nM PSM-0183; category; read-out: pIC50 [C4-2] CAT (converted)
Experimental: In order to determine binding of compounds according to the present invention to PSMA-expressing cells, a FACS binding assay was established. PSMA-expressing C4-2 cells (ATCC, Cat. No. CRL-3314) were cultured in RPMI-1640 (Pan Biotech, Cat. No. P04-18050) including 10% fetal calf serum (Biochrom) and 100 U/ml penicillin and 100 μg/mL streptomycin (Sigma, Cat. No. P0781). […]
Numbered stars: 1 amine (or outer) side, 2 acyl side, 3 side chain; on linkers, the order of the positions; unused ones are H or OH. Bridge positions count the residues as written; N and C are the ends. Square brackets hold non-standard residues; d marks the D form. Peptide text beside a SMILES is read from it. * marks the point of attachment. DOTA = O=C(O)CN1CCN(CC(=O)O)CCN(CC(=O)*)CCN(CC(=O)O)CC1; Phe(4-Cl) = N[C@@H](Cc1ccc(Cl)cc1)C(=O)O; d(αMeD) = C[C@@](N)(CC(=O)O)C(=O)O; X4 = O=C(CN1CCC(N[*:1])CC1)[*:2]; X1 = O=C(CC1CCN([*:1])CC1)[*:2]; Tle = CC(C)(C)[C@H](N)C(=O)O; Aib = CC(C)(N)C(=O)O; Guanidino = N=C(N)N*
QUANTITY KIND: IC50

Some entries whose results are on file:
>  <COMPOUND>
C[C@@H](O)[C@H](NC(=O)[C@@H](NC(=O)[C@@H]1CSSC[C@H](NC(=O)[C@H](Cc2ccccc2)NC(=O)C(C)(C)NC(=O)CN2CCC(NC(=O)CN3CCN(CC(=O)O)CCN(CC(=O)O)CCN(CC(=O)O)CC3)CC2)C(=O)N[C@@H](CCCCN)C(=O)N[C@@H](CCCNC(=N)N)C(=O)NC(C)(C)C(=O)N[C@@H](CC(N)=O)C(=O)N1)C(C)(C)C)C(N)=O [PSM-0261] ({DOTA}-[X4][Aib]FCKR[Aib]NC[Tle]T-NH2; disulfide 4-9)

>  <IC50>
< 200 nM

$$$$
>  <COMPOUND>
CC(=O)N[C@H](C(=O)NC(C)(C)C(=O)N[C@@H](Cc1ccc(Cl)cc1)C(=O)N[C@H]1CSSC[C@@H](C(=O)N[C@H](C(=O)N[C@H](C(N)=O)[C@@H](C)O)C(C)(C)C)NC(=O)[C@H](CC(N)=O)NC(=O)C(C)(C)NC(=O)[C@H](CCC(=O)NC(=N)N)NC(=O)[C@H](CCCCN)NC1=O)[C@@H](C)O [PSM-0189] (Ac-T[Aib][Phe(4-Cl)]CKE(Guanidino)[Aib]NC[Tle]T-NH2; disulfide 4-9)

>  <IC50>
< 200 nM

$$$$

Okay, next one:
Noted for C[C@@H](O)[C@H](NC(=O)[C@@H](NC(=O)[C@@H]1CSSC[C@H](NC(=O)[C@H](Cc2ccc(Cl)cc2)NC(=O)C(C)(C)NC(=O)[C@@H](NC(=O)CC2CCN(C(=O)CN3CCN(CC(=O)O)CCN(CC(=O)O)CCN(CC(=O)O)CC3)CC2)[C@@H](C)O)C(=O)N[C@@H](CCCCN)C(=O)N[C@@H](CCCNC(=N)N)C(=O)N[C@](C)(CC(=O)O)C(=O)N[C@@H](CC(N)=O)C(=O)N1)C(C)(C)C)C(N)=O [PSM-0227] ({DOTA}-[X1]T[Aib][Phe(4-Cl)]CKR[d(αMeD)]NC[Tle]T-NH2; disulfide 5-10) : its IC50 reads < 200 nM
